Values were extracted from the EternaBench riboswitch data.

Tested on: MS2 coat protein
Test: apparent Kd, MS2 coat protein; higher = weaker binding; RNA-MaP array
Details: designed as: OFF switch for flavin mononucleotide; no ligand
Returns one of T or F; T when apparent Kd is >= 30 nM.

{"Polymer sequence": "GCCCGGACACAAGGAUAUCAGACCAAUACAUGAGGAUCACCCAUGUCGGGCCUCUAAGUACGACCUGAGAAGGUGUCUCCCAGU", "Category label": "T"}
{"Polymer sequence": "GUAUGCCACAGGGACAUGAGGAUCACCCAUGUAAAUACGGAUAGAAGGCGACGAGCGUAGCUCUUCGAGGAUAUAUGCUUUUUG", "Category label": "T"}
{"Polymer sequence": "CCGAACACUUAGAAGGAUUUAAUCUAUAAUUGAAUAGGAUAUAAGGCCUUACGUGCGAAUGAACACAUGAGGAUCACCCAUGUA", "Category label": "F"}
{"Polymer sequence": "CUCCUCACCGUGAGGAUAUAGUAUUCCGGUUGUUACUAGAAGGCACAUGAGGAUCACCCAUGUUACGGUUCCCA", "Category label": "F"}
{"Polymer sequence": "AUCAGUGGCUAGGAUAUGUUAGUCAGAUAUACAACAGAAGGAGCGACAUGAGGAUCACCCAUGUUACAGUGGAG", "Category label": "F"}
{"Polymer sequence": "GGGAUACAUGAGGAUCACCCAUGUCAGGAUAUCUUUUACCGGCACGACAAUCAUAUGAAGAGAAGGGACUAUAU", "Category label": "T"}
{"Polymer sequence": "UUUAUGUCAGGAUAUCCAACACUAUGGGAAAGUAAAUAUAGGGAGAAGGGACAUGAGGAUCACCCAUGUCAACA", "Category label": "F"}
{"Polymer sequence": "UGGGAGUGAGGAUAUGUAUAUCUCAGGGCCGAGGAGAUGAAACAGAAGGCACAUGAGGAUCACCCAUGUUAUGA", "Category label": "F"}
{"Polymer sequence": "ACACAUAAUCUCGGACAUGAGGAUCACCCAUGUGUCACAAUCAGAAGGCACACUUGACAAGGGAGUGAGGAUAUGAAUACAUUA", "Category label": "T"}
{"Polymer sequence": "AGCGACAUGAGGAUCACCCAUGUGUUAGCUAAGCCUCUCAGCAGAAGGGAUGGUGUCCCAGAUGAUCAGGAUAUGCUGUUUUUG", "Category label": "T"}
{"Polymer sequence": "CGACGCUUAGGAUAUUGGUACACCUACAUGAGGAUCACCCAUGUGACUCCUUUACAAGGGCAAGAAGGAAGUUGGU", "Category label": "T"}
{"Polymer sequence": "CCAAAAUCGAAGAAGGCUAUGCGUACCAAUCUUAGAGGAUAUUCGACCUUAGCUAACAUGAGGAUCACCCAUGUGGGAAACACG", "Category label": "F"}
{"Polymer sequence": "AACAUGUGAGGAUAUAGUCAAAAUAGCACAAGUAACAUAAACUAGAAGGCACAUGAGGAUCACCCAUGUGAAUA", "Category label": "F"}
{"Polymer sequence": "UGAUGAUGACAGGAUAUUAGCGUAAUGAAACUUUAAGAAGGGUCGACAUGAGGAUCACCCAUGUAUGAUCUCGA", "Category label": "F"}
{"Polymer sequence": "UAGUAACAUGAGGAUCACCCAUGUCAGGAUAUGAGGUCUACGGCAUAAGCGAAUCGGGUCAGAAGGGACAUAAC", "Category label": "F"}
